Molecular target: T1, human serum albumin (human, UniProt P02768 25-609)
T1 construct: Immobilised by amine coupling on a C1 chip; also called HSA
T1 sequence (P02768 25-609 limits assumed): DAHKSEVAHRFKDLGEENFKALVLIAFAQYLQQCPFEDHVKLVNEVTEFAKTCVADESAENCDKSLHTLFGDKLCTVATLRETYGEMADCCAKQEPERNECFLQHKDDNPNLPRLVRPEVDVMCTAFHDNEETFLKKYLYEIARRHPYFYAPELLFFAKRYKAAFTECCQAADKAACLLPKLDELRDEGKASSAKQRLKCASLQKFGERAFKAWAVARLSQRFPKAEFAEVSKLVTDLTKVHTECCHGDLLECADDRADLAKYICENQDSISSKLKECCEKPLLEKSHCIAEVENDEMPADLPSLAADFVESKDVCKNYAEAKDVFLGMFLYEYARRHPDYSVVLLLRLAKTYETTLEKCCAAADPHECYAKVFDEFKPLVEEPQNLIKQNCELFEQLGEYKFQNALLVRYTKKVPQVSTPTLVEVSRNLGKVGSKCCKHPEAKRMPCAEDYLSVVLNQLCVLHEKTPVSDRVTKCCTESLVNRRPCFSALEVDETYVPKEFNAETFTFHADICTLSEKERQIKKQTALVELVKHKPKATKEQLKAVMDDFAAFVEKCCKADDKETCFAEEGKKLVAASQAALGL
Assay: SPR Biacore 8K+, HSA amine-coupled on C1 chip, ISVD analyte, 1:1 fit
The entries below come with measured koff values attached.
Record the result as number plus unit.

Field: example entries. Status: answers known.
Binder	Endpoint value
T028501816 (VHH, K75A vs precursor T028501805; also called HSA006A06(K75A, K83R)) VHH: EVQLVESGGGVVQPGGSLRLSCAASGFTFRSFGMSWVRQAPGKGPEWVSSISGSGSDTLYADSVKGRFTISRDNSANTLYLQMNSLRPEDTALYYCTIGGSLSRSSQGTLVTVSS	0.00105 s⁻¹
T028501808 (VHH, K43H vs precursor T028501805; also called HSA006A06(K43H, K83R)) VHH: EVQLVESGGGVVQPGGSLRLSCAASGFTFRSFGMSWVRQAPGHGPEWVSSISGSGSDTLYADSVKGRFTISRDNSKNTLYLQMNSLRPEDTALYYCTIGGSLSRSSQGTLVTVSS	0.00102 s⁻¹

Now turn to the next binder.
Sure, the documented koff for T028501813 (VHH, K75E vs precursor T028501805; also called HSA006A06(K75E, K83R)) VHH: EVQLVESGGGVVQPGGSLRLSCAASGFTFRSFGMSWVRQAPGKGPEWVSSISGSGSDTLYADSVKGRFTISRDNSENTLYLQMNSLRPEDTALYYCTIGGSLSRSSQGTLVTVSS is 0.00102 s⁻¹
